# Tested on: Human betaherpesvirus 5
# assay-summary: Antiviral activity against HCMV TB40 infected in human HFF cells assessed as reduction in plaque formation treated with compound following viral infection at MOI of 100 PFU/wells measured at 10 days post-infection in presence of GCV by crystal violet staining based assay
# Format: functional, organism-based
# particulars: Human betaherpesvirus 5, TB40, HFF, 240 h
pEC50: −log10 of the molar value.
measured-attribute: pEC50

molecular_string=CC(C)NC(=O)C1CCN(C(=O)c2cc3sccc3n2Cc2ccc(Cl)cc2)CC1 quantitative_readout=5.82

====

Here the recorded CC50 is given for each entry.
# Test system: HFF
# assay-summary: Cytotoxicity against human HFF cells assessed as reduction in cell viability incubated for 72 hrs or 10 days by MTT assay
# Type: cell-based
measured-attribute: CC50

molecular_string=CCN1CCN(CCCNC(=O)c2ccc3c(c2)sc2nc(-c4ccc(OC)cc4)cn23)CC1 measured_attribute=CC50 result="70.9 µM"
molecular_string=CC(C)NC(=O)C1CCN(C(=O)c2cc3sccc3n2Cc2ccc(Cl)cc2)CC1 measured_attribute=CC50 result="> 200 µM"
molecular_string=CCc1ccc(NC(=O)[C@H](Cc2c[nH]c3ccccc23)NC(=O)[C@@H]2Cc3ccccc3CN2)cc1 measured_attribute=CC50 result="86 µM"
molecular_string=COc1ccc(Cl)cc1C(=O)Nc1ccc(NC(=O)c2ccco2)cc1 measured_attribute=CC50 result="> 500 µM"
molecular_string=Nc1nc(O)c2ncn(COC(CO)CO)c2n1 measured_attribute=CC50 result="> 200 µM"
molecular_string=Nc1c(S(=O)(=O)c2cccs2)c2nc3ccccc3nc2n1Cc1ccccc1 measured_attribute=CC50 result="> 250 µM"
